test system: Bacillus subtilis; assay: Antimicrobial activity against Bacillus subtilis 2250 at 35 degC after 18 to 24 hrs by NCCLS method based antimicrobial assay; type: functional; conditions: read-out: MBC99.9
List of MBC values.

Some molecules with known MBC results, for comparison:
- MOLECULE SMILES: "O=C(N[C@H](CO)[C@H](O)c1ccc([N+](=O)[O-])cc1)C(Cl)Cl"
  MBC: "32 µg/mL"
- MOLECULE SMILES: "Clc1ccc(/C(Cn2nnc3ccccc32)=N\\Nc2nc(-c3ccc(Cl)cc3)cs2)cc1"
  MBC: "64 µg/mL"
- MOLECULE SMILES: "O=[N+]([O-])c1ccc(/C(Cn2nnc3ccccc32)=N\\Nc2nc(-c3ccc(Br)cc3)cs2)cc1"
  MBC: "256 µg/mL"
- MOLECULE SMILES: "Fc1ccc(-c2csc(N/N=C(/Cn3nnc4ccccc43)c3ccc(Cl)cc3)n2)cc1"
  MBC: "128 µg/mL"
- MOLECULE SMILES: "Brc1ccc(/C(Cn2nnc3ccccc32)=N\\Nc2nc(-c3ccc(Br)cc3)cs2)cc1"
  MBC: "256 µg/mL"

Complete the entry with MBC for Clc1ccc(/C(Cn2nnc3ccccc32)=N\Nc2nc(-c3ccc(Br)cc3)cs2)cc1
256 µg/mL

Complete the entry with MBC for O=[N+]([O-])c1ccc(-c2csc(N/N=C(/Cn3nnc4ccccc43)c3ccc(F)cc3)n2)cc1
256 µg/mL

Complete the entry with MBC for Fc1ccc(/C(Cn2nnc3ccccc32)=N\Nc2nc(-c3ccc(Br)cc3)cs2)cc1
128 µg/mL
